- assayed system: TRPC5 (Homo sapiens, UniProt Q9UL62)
- Construct: expressed in transfected cells; host or cells: HEK293 TREx cells, inducible TRPC5 expression, induced 20-48 hours
- Sequence (Q9UL62 whole entry): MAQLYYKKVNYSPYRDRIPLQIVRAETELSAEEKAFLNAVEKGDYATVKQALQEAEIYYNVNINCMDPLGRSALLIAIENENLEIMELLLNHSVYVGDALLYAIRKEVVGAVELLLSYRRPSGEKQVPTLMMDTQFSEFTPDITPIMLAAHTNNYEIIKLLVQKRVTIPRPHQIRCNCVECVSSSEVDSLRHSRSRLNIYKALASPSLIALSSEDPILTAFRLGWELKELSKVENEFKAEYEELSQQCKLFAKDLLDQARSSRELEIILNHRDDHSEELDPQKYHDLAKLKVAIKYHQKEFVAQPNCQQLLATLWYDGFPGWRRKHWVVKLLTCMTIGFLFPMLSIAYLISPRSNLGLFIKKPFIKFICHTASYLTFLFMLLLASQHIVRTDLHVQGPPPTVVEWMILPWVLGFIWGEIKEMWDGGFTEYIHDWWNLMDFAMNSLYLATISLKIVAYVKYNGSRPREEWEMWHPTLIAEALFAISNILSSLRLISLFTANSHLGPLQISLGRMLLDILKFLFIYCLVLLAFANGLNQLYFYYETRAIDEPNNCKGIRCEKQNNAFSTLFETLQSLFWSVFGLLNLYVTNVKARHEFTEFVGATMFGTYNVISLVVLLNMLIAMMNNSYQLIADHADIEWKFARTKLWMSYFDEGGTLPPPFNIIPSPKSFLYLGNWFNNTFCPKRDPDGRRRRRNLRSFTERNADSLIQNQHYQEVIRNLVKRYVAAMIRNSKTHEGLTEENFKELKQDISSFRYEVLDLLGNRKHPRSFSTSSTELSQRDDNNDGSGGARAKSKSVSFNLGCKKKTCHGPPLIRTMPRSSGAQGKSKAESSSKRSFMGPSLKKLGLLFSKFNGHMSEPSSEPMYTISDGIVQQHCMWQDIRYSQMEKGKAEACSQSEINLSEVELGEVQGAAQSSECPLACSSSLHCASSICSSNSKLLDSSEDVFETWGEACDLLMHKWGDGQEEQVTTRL
- assay text: Assay A: Determination of TRPC5-Inhibition (whole-cell patch clamp)
- Type: cell-based
- details: compounds of the present invention, TRPC5-expressing HEK293 TREx cells, LaCl3-activated current
recorded endpoint: IC50 (nM)

P = CCn1c(=O)n(CCCO)c(=O)c2c1nc(-c1ccc(OC3CCC3C)nc1)n2Cc1ccc(Cl)cc1 (stereo not shown)
Q = CCn1c(=O)n(CCCO)c(=O)c2c1nc(-c1ccc(OC3CC(C)(C)C3)nc1C)n2Cc1ccc(F)cc1
[in] Could you kindly indicate whether P or Q has the higher IC50 value? Answer format: the label of the selected item.
[out] P

A = CCn1c(=O)n(CCCO)c(=O)c2c1nc(-c1ccc(OC3CC(C)C3)nc1C)n2Cc1ccc(F)cc1 (stereo not shown)
B = CCn1c(=O)n(CCCO)c(=O)c2c1nc(-c1ccc(OC3CCC3)nc1)n2Cc1ccc(Cl)cc1F
[in] Could you kindly indicate whether A or B has the higher IC50 value? Answer format: the label of the selected item.
[out] B
(B: 1.59 nM, A: 0.207 nM)

###

- assayed system: TRPC5 (Homo sapiens)
- Construct: expressed in transfected cells; host or cells: HEK293 TREx cells, inducible TRPC5 expression, induced 20-48 hours
- assay text: Assay A: Determination of TRPC5-Inhibition (whole-cell patch clamp)
- Type: cell-based
- details: compounds of the present invention, TRPC5-expressing HEK293 TREx cells, LaCl3-activated current
pIC50: −log10 of the molar value.
recorded endpoint: pIC50

I = Cc1nc(OC2CCCC2)ccc1-c1nc2c(c(=O)n(CCCO)c(=O)n2C(C)C)n1Cc1ccccc1
II = CCn1c(=O)n(CCCO)c(=O)c2c1nc(-c1ccc(OC3CCC3)nc1)n2Cc1ccc(C)cc1
III = Cc1nc(OC2CCC2C)ccc1-c1nc2c(c(=O)n(CCCO)c(=O)n2C(C)C)n1Cc1ccccc1 (stereo not drawn)
[in] Sort the items above by pIC50, starting with the smallest value. // format: requested-order list of labels
[out] II, III, I

P = CCn1c(=O)n(CCCO)c(=O)c2c1nc(-c1ccc(OC3CCC3)nc1)n2Cc1ccc(F)c(F)c1
Q = CCC(C)n1c(=O)n(CCCO)c(=O)c2c1nc(-c1ccc(OC3CC(C)C3)nc1C)n2Cc1ccccc1 (stereo not drawn)
[in] Could you kindly indicate whether P or Q has the higher pIC50 value? Answer format: the label of the selected item.
[out] Q

###

- assayed system: TRPC5 (Homo sapiens, UniProt Q9UL62)
- Construct: expressed in transfected cells; host or cells: HEK293 TREx cells, inducible TRPC5 expression, induced 20-48 hours
- assay text: Assay A: Determination of TRPC5-Inhibition (whole-cell patch clamp)
- Format: cell-based
- details: compounds of the present invention, TRPC5-expressing HEK293 TREx cells, LaCl3-activated current
pIC50: −log10 of the molar value.
recorded endpoint: pIC50

Field: example entries. Status: answers known.
[in] Entry CCn1c(=O)n(CCCO)c(=O)c2c1nc(-c1ccc(OC3CCC3C)nc1C)n2Cc1ccc(F)cc1 (stereo not drawn) has what pIC50?
[out] 9.16

[in] And then Cc1nc(OC2CCC23CCC3)ccc1-c1nc2c(c(=O)n(CCCO)c(=O)n2C(C)C)n1Cc1ccccc1 (stereo not drawn) , what is it?
[out] > 10.00

Next:
[in] Entry Cc1nc(OC2CC(C)C2)ccc1-c1nc2c(c(=O)n(CCCO)c(=O)n2C(C)C)n1Cc1ccccc1 (stereo not drawn) has what pIC50?
[out] > 9.49
